B1: LPCAT4 (parent)
chain: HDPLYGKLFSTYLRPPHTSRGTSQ

variants of: B1; test: protein stability index of a GFP-peptide fusion (GPS, HEK-293T) (PSI 1-6); higher = more stable; details: c terminus: a fixed tail appended;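 also: lentivirally expressed fusions sorted by FACS into six bins by GFP to DsRed ratio, PSI derived from sequencing read proportions per bin multiplied by bin number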
Quick rule: protein stability index of at least 3 means met, below that means not met.

Record excerpt, results attached:
query.sequence	class.name
HDPLYGKLFITYLRPPHTSRGTSQ [S10I]	not met
HDPLYQKLFSTYLRPPHTSRGTSQ [G6Q]	not met
HDPLYGKLHSTYLRPPHTSRGTSQ [F9H]	met
HDPLYGKLFSTYLRPPHTSRGISQ [T22I]	not met
HDPLYKKLFSTYLRPPHTSRGTSQ [G6K]	not met
HDPLYGKAFSTYLRPPHTSRGTSQ [L8A]	met

**Q:** Test whether the variant HDPLKGKLFSTYLRPPHTSRGTSQ [Y5K] records protein stability index of 3 or higher.
**A:** met

**Q:** Test whether the variant FDPLYGKLFSTYLRPPHTSRGTSQ [H1F] records protein stability index of 3 or higher.
**A:** not met

**Q:** Test whether the variant HDPLYGKLFSTYHRPPHTSRGTSQ [L13H] records protein stability index of 3 or higher.
**A:** met

**Q:** Test whether the variant HDPLYGKLFSTGLRPPHTSRGTSQ [Y12G] records protein stability index of 3 or higher.
**A:** met

**Q:** Test whether the variant HDPLYGKLFSTYLRPPHTMRGTSQ [S19M] records protein stability index of 3 or higher.
**A:** not met

**Q:** Test whether the variant HDPLYGKLFSTYLRVPHTSRGTSQ [P15V] records protein stability index of 3 or higher.
**A:** not met

**Q:** Test whether the variant HDPSYGKLFSTYLRPPHTSRGTSQ [L4S] records protein stability index of 3 or higher.
**A:** met

**Q:** Test whether the variant HDPLYGKLFSTYLRPPHTSRGDSQ [T22D] records protein stability index of 3 or higher.
**A:** not met
